Molecular target: Mu-type opioid receptor (Homo sapiens, UniProt P35372)
Sequence (P35372 whole entry): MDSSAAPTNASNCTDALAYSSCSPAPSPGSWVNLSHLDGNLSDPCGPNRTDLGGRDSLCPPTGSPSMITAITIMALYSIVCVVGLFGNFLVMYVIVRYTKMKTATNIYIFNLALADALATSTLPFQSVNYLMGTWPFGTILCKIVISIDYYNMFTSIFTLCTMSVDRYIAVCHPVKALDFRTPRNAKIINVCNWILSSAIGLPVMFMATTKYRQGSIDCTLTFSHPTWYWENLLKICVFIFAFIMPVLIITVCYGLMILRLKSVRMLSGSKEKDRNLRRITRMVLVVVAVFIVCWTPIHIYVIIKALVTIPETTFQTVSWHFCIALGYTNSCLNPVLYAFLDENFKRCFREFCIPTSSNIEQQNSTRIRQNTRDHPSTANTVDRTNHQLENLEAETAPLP
Assay: FLIPR Calcium Assay
Lab note: cut-off is 4 µM. Strictly less in EC50 is Y. Exactly 4 µM or more is N.

Hello, is EC50 of the following molecule strictly smaller than 4 µM? Cc1cc(C(=O)OCCCc2ccccc2)ccc1N1C(=O)CSC1c1ccc(F)cc1 (centres undefined)
N

Hello, is EC50 of the following molecule strictly smaller than 4 µM? Cc1cccc(F)c1N1C(=O)CSC1c1ccc(F)cc1 (centres undefined)
Y

Hello, is EC50 of the following molecule strictly smaller than 4 µM? COc1ccccc1N1C(=O)CSC1c1ccc(F)cc1 (centres undefined)
N

Hello, is EC50 of the following molecule strictly smaller than 4 µM? COCCOCCOC(=O)c1ccc(N2C(=O)CSC2c2ccc(F)cc2)c(C)c1 (centres undefined)
N

Hello, is EC50 of the following molecule strictly smaller than 4 µM? COc1ccc(F)cc1N1C(=O)CSC1c1ccc(F)c(F)c1 (centres undefined)
Y

New cases:
Hello, is EC50 of the following molecule strictly smaller than 4 µM? Cc1cc(C(=O)OCCN2CCCC2)ccc1N1C(=O)CSC1c1ccc(F)cc1 (centres undefined)
Y

Hello, is EC50 of the following molecule strictly smaller than 4 µM? Cc1cc(C(=O)NCCN2CCOCC2)ccc1N1C(=O)CSC1c1ccc(F)cc1 (centres undefined)
N

Hello, is EC50 of the following molecule strictly smaller than 4 µM? COc1ccc(F)cc1N1C(=O)CSC1c1cccc(F)c1 (centres undefined)
N
